System: primary human total T-cells
assay-summary: T-cell activation, IL-2 secretion, Biological Example 2
Assay type: cell-based
reported-conditions: anti-CD3 stimulation alone, 48 hours, 3 μM inhibitor, fold change over baseline
Catalogue of compounds with associated fold induction at 3 µM
property-name: fold induction at 3 µM

[[record]]
compound = "C[C@@H]1C[C@H](C)CN(Cc2cc(C(=O)Nc3cccc([C@]4(Cc5nncn5C)C[C@@H](C#N)C4)c3)nc(C3CC3)c2)C1"
property_name = "fold induction at 3 µM"
endpoint_value = "> 0.85"

[[record]]
compound = "Cn1cnnc1C[C@]1(c2cccc(N3Cc4c(cc(CN5CCC[C@H](C(F)(F)F)C5)cc4C(F)(F)F)C3=O)c2)C[C@H](C#N)C1"
property_name = "fold induction at 3 µM"
endpoint_value = "0.4 to 0.85"

[[record]]
compound = "Cn1cnnc1C[C@]1(c2cccc(N3Cc4c(cc(CN5CCCOC(CO)C5)cc4C(F)(F)F)C3=O)c2)C[C@H](C#N)C1 (stereo partly drawn)"
property_name = "fold induction at 3 µM"
endpoint_value = "< 0.4"

[[record]]
compound = "CN(Cc1cc2c(c(C(F)(F)F)c1)CN(c1cccc([C@]3(Cc4nncn4C)C[C@@H](C#N)C3)c1)C2=O)C1CCC(F)(F)C1 (stereo partly drawn)"
property_name = "fold induction at 3 µM"
endpoint_value = "> 0.85"

[[record]]
compound = "Cn1cnnc1C[C@]1(c2cccc(N3Cc4c(cc(CN5CCC6(CC6)C5)cc4C(F)(F)F)C3=O)c2)C[C@H](C#N)C1"
property_name = "fold induction at 3 µM"
endpoint_value = "0.4 to 0.85"

[[record]]
compound = "Cc1cc(C(=O)Nc2cccc([C@]3(Cc4nncn4C)C[C@@H](C#N)C3)c2)nc(C2CC2)n1"
property_name = "fold induction at 3 µM"
endpoint_value = "< 0.4"


---

Test system: primary human total T-cells
assay-summary: T-cell activation, IL-2 secretion, Biological Example 2
Format: cell-based
reported-conditions: anti-CD3 stimulation alone, 48 hours, 3 μM inhibitor, fold change over baseline
property-name: fold induction at 3 µM

[[record]]
molecule = "C[C@@H]1CN(Cc2cc3c(c(C4CC4)n2)CN(c2cccc([C@]4(Cc5nncn5C)C[C@@H](C#N)C4)c2)C3=O)CCC1(F)F"
endpoint_value = "> 0.85"

[[record]]
molecule = "C[C@@H]1CN(Cc2cc(C(=O)Nc3cccc([C@]4(Cc5nncn5C)C[C@@H](C#N)C4)c3)nc(C3CC3)c2)CCO1"
endpoint_value = "0.4 to 0.85"

[[record]]
molecule = "Cn1cnnc1C[C@]1(c2cccc(N3Cc4c(cc(CN5CCC6C(C5)C6(F)F)cc4C(F)(F)F)C3=O)c2)C[C@H](C#N)C1 (stereo partly drawn)"
endpoint_value = "0.4 to 0.85"

[[record]]
molecule = "CC1CN(Cc2cc3c(c(C(F)(F)F)c2)CN(c2cccc([C@]4(Cc5nncn5C)C[C@@H](C#N)C4)c2)C3=O)CCCO1 (stereo partly drawn)"
endpoint_value = "0.4 to 0.85"

[[record]]
molecule = "C[C@@H]1CN(Cc2cc3c(c(C(F)(F)F)c2)CN(c2cccc([C@]4(Cc5nncn5C)C[C@@H](C#N)C4)c2)C3=O)CCC1(F)F"
endpoint_value = "> 0.85"

[[record]]
molecule = "Cn1cnnc1C[C@]1(c2cccc(N3Cc4c(cc(CN5CCOCC(CO)C5)cc4C(F)(F)F)C3=O)c2)C[C@H](C#N)C1 (stereo partly drawn)"
endpoint_value = "< 0.4"


---

study-target: UniProt Q13191
assay-summary: Cbl-b displacement assay (Cbl-b inhibition assay), Biological Example 1
Assay type: binding
reported-conditions: 0.125 nM Cbl-b final concentration (Low); read-out: Cbl-b activity IC50 (Low)
pIC50: −log10 of the molar value.
Catalogue of molecules with associated pIC50
property-name: pIC50

[[record]]
molecule = "Cn1cnnc1C[C@]1(c2cccc(N3Cc4c(cc(CN5CCO[C@H](C(F)(F)F)C5)cc4C(F)(F)F)C3=O)c2)C[C@H](C#N)C1 [Compound 16]"
endpoint_value = "8.70 to 9.00"

[[record]]
molecule = "C[C@H]1CCCN(Cc2cc3c(c(C4CC4)n2)CN(c2cccc([C@]4(Cc5nncn5C)C[C@@H](C#N)C4)c2)C3=O)C1 [Compound 40]"
endpoint_value = "8.70 to 9.00"

[[record]]
molecule = "C[C@@H]1CN(Cc2cc3c(c(C(F)(F)F)c2)CN(c2cccc([C@]4(Cc5nncn5C)C[C@@H](C#N)C4)c2)C3=O)CCO1 [Compound 6]"
endpoint_value = "8.30 to 8.70"

[[record]]
molecule = "CC1CCN(Cc2cc3c(c(C(F)(F)F)c2)CN(c2cccc([C@]4(Cc5nncn5C)C[C@@H](C#N)C4)c2)C3=O)CC(C)O1 (stereo partly shown) [Compound 34]"
endpoint_value = "8.30 to 8.70"

[[record]]
molecule = "Cn1cnnc1C[C@]1(c2cccc(N3Cc4c(cc(CNC5CCC(C)(C)C5)cc4C(F)(F)F)C3=O)c2)C[C@H](C#N)C1 (stereo partly shown) [Compound 31]"
endpoint_value = "> 9.00"

[[record]]
molecule = "Cn1cnnc1C[C@]1(c2cccc(N3Cc4c(cc(CN5CCCOC(CO)C5)cc4C(F)(F)F)C3=O)c2)C[C@H](C#N)C1 (stereo partly shown) [Compound 41]"
endpoint_value = "8.30 to 8.70"

[[record]]
molecule = "Cn1cnnc1C[C@]1(c2cccc(N3Cc4c(cc(CN5CCC[C@H](C(F)(F)F)C5)cc4C(F)(F)F)C3=O)c2)C[C@H](C#N)C1 [Compound 14]"
endpoint_value = "8.30 to 8.70"

[[record]]
molecule = "Cn1cnnc1C[C@]1(c2cccc(N3Cc4c(cc(CN5CCOCC(CO)C5)cc4C(F)(F)F)C3=O)c2)C[C@H](C#N)C1 (stereo partly shown) [Compound 44]"
endpoint_value = "8.70 to 9.00"

[[record]]
molecule = "CC1CCN(Cc2cc3c(c(C(F)(F)F)c2)CN(c2cccc([C@]4(Cc5nncn5C)C[C@@H](C#N)C4)c2)C3=O)CCO1 (stereo partly shown) [Compound 36]"
endpoint_value = "8.30 to 8.70"

[[record]]
molecule = "C[C@@H]1CN(Cc2cc3c(c(C(F)(F)F)c2)CN(c2cccc([C@]4(Cc5nncn5C)C[C@](C)(C#N)C4)c2)C3=O)CCO1 [Compound 10]"
endpoint_value = "≤ 7.70"

[[record]]
molecule = "Cn1cnnc1C[C@]1(c2cccc(N3Cc4c(cc(CN5CCOCC6(CC6)C5)cc4C(F)(F)F)C3=O)c2)C[C@H](C#N)C1 [Compound 30]"
endpoint_value = "8.30 to 8.70"

[[record]]
molecule = "CC1CCCN(Cc2cc3c(c(C(F)(F)F)c2)CN(c2cccc([C@]4(Cc5nncn5C)C[C@@H](C#N)C4)c2)C3=O)CC1 (stereo partly shown) [Compound 13]"
endpoint_value = "8.30 to 8.70"

[[record]]
molecule = "Cn1cnnc1C[C@]1(c2cccc(N3Cc4c(cc(CN5CCC[C@H](C(F)(F)F)C5)nc4C4CC4)C3=O)c2)C[C@H](C#N)C1 [Compound 49]"
endpoint_value = "> 9.00"


---

study-target: Cbl-b (Homo sapiens (Human))
Sequence (Q13191 36-427): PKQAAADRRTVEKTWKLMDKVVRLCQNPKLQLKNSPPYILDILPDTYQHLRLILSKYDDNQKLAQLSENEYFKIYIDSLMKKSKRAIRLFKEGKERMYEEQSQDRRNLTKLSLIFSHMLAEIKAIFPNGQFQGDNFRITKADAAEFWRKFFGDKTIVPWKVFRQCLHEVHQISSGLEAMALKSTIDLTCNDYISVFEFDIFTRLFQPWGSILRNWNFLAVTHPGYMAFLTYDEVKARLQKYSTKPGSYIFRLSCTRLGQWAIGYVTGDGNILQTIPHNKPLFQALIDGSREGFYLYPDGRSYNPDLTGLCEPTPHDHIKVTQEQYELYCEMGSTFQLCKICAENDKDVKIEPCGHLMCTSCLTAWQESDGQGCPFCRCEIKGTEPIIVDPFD
assay-summary: Cbl-b displacement assay (Cbl-b inhibition assay), Biological Example 1
Type: binding
reported-conditions: 0.125 nM Cbl-b final concentration (Low); read-out: Cbl-b activity IC50 (Low)
property-name: IC50

[[record]]
compound = "Cn1cnnc1C[C@]1(c2cccc(N3Cc4c(cc(CN5CCCCC(C)(F)C5)cc4C(F)(F)F)C3=O)c2)C[C@H](C#N)C1 (some centres unmarked) [Compound 26]"
endpoint_value = "2 to 5 nM"

[[record]]
compound = "Cn1cnnc1C[C@]1(c2cccc(N3Cc4c(cc(CN5CC6COC(C6)C5)cc4C(F)(F)F)C3=O)c2)C[C@H](C#N)C1 (some centres unmarked) [Compound 38]"
endpoint_value = "5 to 20 nM"

[[record]]
compound = "Cn1cnnc1C[C@]1(c2cccc(N3Cc4c(cc(CN[C@@H]5CCC(F)(F)C5)cc4C(F)(F)F)C3=O)c2)C[C@H](C#N)C1 [Compound 21]"
endpoint_value = "< 1 nM"

[[record]]
compound = "Cn1cnnc1C[C@]1(c2cccc(N3Cc4c(cc(CN5CCCCC(F)(F)C5)cc4C(F)(F)F)C3=O)c2)C[C@H](C#N)C1 [Compound 50]"
endpoint_value = "2 to 5 nM"

[[record]]
compound = "Cn1cnnc1C[C@]1(c2cccc(N3Cc4c(cc(CN5CCCC(F)(F)CC5)cc4C(F)(F)F)C3=O)c2)C[C@H](C#N)C1 [Compound 17]"
endpoint_value = "1 to 2 nM"


---

Catalogue of molecules with associated fold induction at 3 µM
Tested on: primary human total T-cells
assay-summary: T-cell activation, IL-2 secretion, Biological Example 2
Format: cell-based
reported-conditions: anti-CD3 stimulation alone, 48 hours, 3 μM inhibitor, fold change over baseline
property-name: fold induction at 3 µM

[[record]]
molecule = "CCC1CN(Cc2cc3c(c(C(F)(F)F)c2)CN(c2cccc([C@]4(Cc5nncn5C)C[C@@H](C#N)C4)c2)C3=O)CCCO1 (stereo partly drawn)"
property_name = "fold induction at 3 µM"
endpoint_value = "> 0.85"

[[record]]
molecule = "Cn1cnnc1C[C@]1(c2cccc(N3Cc4c(cc(CN5CCc6ncccc6C5)cc4C(F)(F)F)C3=O)c2)C[C@H](C#N)C1"
property_name = "fold induction at 3 µM"
endpoint_value = "< 0.4"

[[record]]
molecule = "Cn1cnnc1C[C@]1(c2cccc(N3Cc4c(cc(CN5CCCC(F)(F)CC5)cc4C(F)(F)F)C3=O)c2)C[C@H](C#N)C1"
property_name = "fold induction at 3 µM"
endpoint_value = "0.4 to 0.85"


Entry source: patent US11530229B2
